# MEASUREMENT_TARGET: pooled human IgG (human IgG1, 2, 3 and 4)
REPORTED_METRIC: Enzyme Activity Endpoint Assay (purified): Fc (ng/µL)
Please reply with the bare figure in ng/µL and do not write the unit itself.

>  <PROTEIN>
PRT-439 (protein) MSQTEDSESLQRLRDIEDFQAEKKKQNVVYTKWLDGVDVKDHDFRKIVDGNIAYYATPLLNGRGFYDINKDFNRDSDKCAAAVAANMFHYWLDRNRDNVDRFLRQNPEKHGIIELPDGQLKLSDFLNTYESDDGYRDKSKLFDFISNNFNGPVWTDKLLDNYINGYAYNYKYGRLIEDPTKNTSKINFFKEVFNEKILTNNHSIRNQNEFSVLLSEALYTGKAIGLSYGPAGLRHSLGHIISVWGADLDADGNVVAIYVTDSDDKKLTIGDERVGLKRYKISTDDEGRLRLTAYEETHNTGGQIRGLWTLDTGKQAWADYFDKTEQTGTDQAEQ

>  <REPORTED_VALUE>
191

$$$$

Let's switch to this protein now.
Q. Give a short answer stating reported Enzyme Activity Endpoint Assay (purified): Fc for PRT-449 (protein) MVTSVWTKGVTPPTDFRKIVDGNIAYYHAPYKAGQGWYDITKTFNGKDDLLCGAATAGNMLHWWFDQNKDQIEAYLKEHPEKQKINFNGEQMFDVKEAIDTKDDQTNSKLFEYFKEKAFPYLSTKHLGVFPDHVLDMFINGYRLSLTNHGPTPVKEGSKDPRGGIFDAVFTRGDQSKLLTSRHDFKEKTLKEISDLIKQELTEGKALALSHTYANVRINHVINLWGADFDSNGNLEAIYVTDSDSNASIGMKKYFVGVNSAGKVAISAKEIEDDNIGAQVLGLFTLSTGQDIWNQTNLEHHHHHH .
A. 365
